Measured values drawn from patent US5504244A for this set.

- System: 5-HETE biosynthesized by glycogen-stimulated polymorphonuclear leucocytes (PMNs)
- protocol summary: Hydroxyacid Profile Assay (HPA): inhibition of 5-HETE synthesis in glycogen-elicited rabbit PMNs
- Type: cell-based
- particulars: Oryctolagus cuniculus, Leucocyte, 100 μM, 5-HETE synthesis, read-out: Percent Inhibition (100 μM)
Respond with True for inhibition at 100 µM values of 60% and above, False for values below.

[[record]]
structure_smiles = "CCCCCCCc1ccc(C(=O)c2cccc(C(=O)O)c2)cc1"
category_label = "True"

[[record]]
structure_smiles = "CCCCCc1ccc(C(=O)CCCC(=O)O)cc1"
category_label = "False"

[[record]]
structure_smiles = "O=C(O)c1cccc(C(=O)c2ccc(C3CCCCC3)cc2)c1"
category_label = "True"

[[record]]
structure_smiles = "Cc1ccc(C(=O)c2cccc(C(=O)O)c2)c(O)c1"
category_label = "False"

[[record]]
structure_smiles = "CCCCCc1ccc(C(=O)CCC(=O)O)cc1"
category_label = "True"

[[record]]
structure_smiles = "CCCCCCCc1ccc(C(=O)Cc2ccccc2C(=O)O)cc1"
category_label = "True"

[[record]]
structure_smiles = "CCCCCCc1ccc(C(=O)CCCCC(=O)O)cc1"
category_label = "False"


====

- Test system: guinea pig ileal strips
- protocol summary: Modified Schultz-Dale Assay: inhibition of antigen-induced anaphylactic contraction of passively sensitized ileal strips
- Assay type: cell-based
- particulars: Cavia porcellus; 75 μM, added at peak of contraction after antigen; read-out: Postchallenge mean percent inhibition
property: inhibition at 75 µM (%)

[[record]]
structure_smiles = "COc1ccc(C(=O)c2cccc(C(=O)O)c2)c(O)c1"
result_value = 14

[[record]]
structure_smiles = "CCCCCCCCc1ccc(C(=O)CCCCC(=O)O)cc1"
result_value = 0

[[record]]
structure_smiles = "Cc1ccc(C(=O)c2cccc(C(=O)O)c2)c(O)c1"
result_value = 6


====

- Tested on: guinea pig ileal strips
- protocol summary: Modified Schultz-Dale Assay: inhibition of antigen-induced anaphylactic contraction of passively sensitized ileal strips
- Format: cell-based
- particulars: Cavia porcellus; added at peak of contraction after antigen; value in parentheses; read-out: Postchallenge IC50
property: IC50

[[record]]
molecule = "CCCCCCCc1ccc(C(=O)c2cccc(-c3nn[nH]n3)c2)cc1 [Example 36, 5-3-(4-n-Heptylbenzoyl)phenyl!tetrazole]"
result_value = "> 75 µM"

[[record]]
molecule = "CCCCCc1ccc(C(=O)Cc2cccc(C(=O)O)c2)cc1 [Example 15, 3-(4-pentylphenacyl)benzoic acid]"
result_value = "> 75 µM"

[[record]]
molecule = "CCCCCc1ccc(C(=O)CCCCC(=O)O)cc1 [Example 2, 5-(4-n-Pentylbenzoyl)pentanoic acid]"
result_value = "> 75 µM"

